# MEASUREMENT NOTES: Microsomal stability, human liver microsomes
# Assay type: in vitro ADME
# CONDITION INFO: human, liver microsomes (pooled), pH 7.4; 37 °C; read-out: t1/2, human microsomes

- COMPOUND: "O=C(Nc1ccc(OC(F)(F)F)cc1)NC1CCN(C(=O)CCNc2c3c(nc4cc(Cl)ccc24)CCCC3)CC1 [12a]"
  half-life: "12 min"

====

# Test system: SH-SY5Y cells
# MEASUREMENT NOTES: Cytotoxicity in SH-SY5Y cells, propidium iodide stain
# Type: cell-based, human
# CONDITION INFO: supplementary CSV
ASSAY READOUT: LD50 (SH-SY5Y)

- COMPOUND: "O=C(Nc1ccc(OC(F)(F)F)cc1)NC1CCN(C(=O)CCCCNc2c3c(nc4cc(Cl)ccc24)CCCC3)CC1 [12c]"
  VALUE REPORTED: "> 100 ?M"
- COMPOUND: "O=C(Nc1ccc(OC(F)(F)F)cc1)NC1CCN(C(=O)CCNc2c3c(nc4cc(Cl)ccc24)CCCC3)CC1 [12a]"
  VALUE REPORTED: "92.8 ± 52.3 ?M"
- COMPOUND: "CC1=C[C@@H]2Cc3nc4cc(Cl)ccc4c(NCCCCC(=O)N4CCC(NC(=O)Nc5ccc(OC(F)(F)F)cc5)CC4)c3[C@H](C1)C2 [(−)-15]"
  VALUE REPORTED: "> 100 ?M"
- COMPOUND: "O=C(Nc1ccc(OC(F)(F)F)cc1)NC1CCN(C(=O)CCCNc2c3c(nc4cc(Cl)ccc24)CCCC3)CC1 [12b]"
  VALUE REPORTED: "> 100 ?M"
